Catalogue of IC50 values
Biological target: DRB1*0901 (Homo sapiens, UniProt P01903+P01911, A100R/A103E/D57H/D86V/F55Y/F60I/F76Y/I96F/K127E/L162R/M171V/P40D/Q125H/Q99R/R33Q/R42F/S133A/S66N/T210M/V115G/W38K/Y107V/Y59G/Y89S)
Test: biochemical
Type: binding
No end group written: not given here.
# number only, unit µM dropped from output

LKAICIEKQSRAAKR [Peptide 90.0032] : 13.4
PEWIQRLTIIQHGID [Peptide 89.0031] : 4.51
LKVLIQPYSIYAHLQ [Peptide 89.0098] : 12.8
TVEVQFDGDICNTMH [Peptide 90.0167] : 0.583
NGWFYVEAVIDRQTG [Peptide 90.0062] : 0.453
TPEWIQRQTVLQHSF [Peptide 89.0010] : 2.87
YRHYQYSLYGKTLEE [Peptide 1543.58] : 0.273
CSAIEVQIALESLST [Peptide 90.0018] : 12

What does the data say about its IC50? Entry: VTVFTFPHAFPFDKN [Peptide 89.0092]
0.033

Next entry: GRVNTHVHNPLLCSS [Peptide 1601.34]
3.35

Next: DSEIAYKYAQLADTN [Peptide 89.0012]
1.93

Next up: FLDVVTIPNSVQISV [Peptide 1601.40]
9.35

====

// values below are reported IC50
Target: DRB1*1201 (Homo sapiens, UniProt P01903+P01911, A100R/A169T/D57E/D86V/F55L/H45Y/K41T/L162R/M171V/P40S/Q125H/Q178H/Q39Y/Q99D/R42G/S66L/T262R/V114A/V67L/W38E/Y59H/Y61H/Y89S)
Experiment: biochemical
Note: unit µM is implicit; provide only the numeric part.

CC[C@H](C)[C@H](NC(=O)[C@H](Cc1c[nH]c2ccccc12)NC(=O)[C@H](CCC(=O)O)NC(=O)[C@@H]1CCCN1)C(=O)N[C@@H](CCC(N)=O)C(=O)N[C@@H](CCCNC(=N)N)C(=O)N[C@@H](CCC(N)=O)C(=O)N[C@H](C(=O)N[C@H](C(=O)N[C@@H](CC(C)C)C(=O)N[C@@H](CCC(N)=O)C(=O)N[C@@H](Cc1c[nH]cn1)C(=O)N[C@@H](CO)C(=O)N[C@@H](Cc1ccccc1)C(=O)N[C@@H](CC(N)=O)C(=O)O)C(C)C)[C@@H](C)O [Peptide 89.0011] : 4.02

Next:
Endpoint output: IC50 of CC[C@H](C)[C@H](N)C(=O)N[C@@H](Cc1ccc(O)cc1)C(=O)N[C@@H](CO)C(=O)N[C@H](C(=O)N[C@@H](CO)C(=O)N[C@@H](CCSC)C(=O)N[C@@H](CCCCN)C(=O)N[C@@H](Cc1c[nH]cn1)C(=O)N1CCC[C@H]1C(=O)N[C@@H](CCC(N)=O)C(=O)N[C@@H](CCC(=O)O)C(=O)N[C@@H](CCSC)C(=O)N[C@@H](CCCCN)C(=O)N[C@H](C(=O)N[C@@H](Cc1ccc(O)cc1)C(=O)O)[C@@H](C)O)[C@@H](C)CC [Peptide 68.0126] . Value?
11.4

====

Item-by-item account of pIC50
Molecular target: DRB1*0901 (Homo sapiens, UniProt P01903+P01911, A100R/A103E/D57H/D86V/F55Y/F60I/F76Y/I96F/K127E/L162R/M171V/P40D/Q125H/Q99R/R33Q/R42F/S133A/S66N/T210M/V115G/W38K/Y107V/Y59G/Y89S)
Assay: biochemical
Format: binding
pIC50: −log10 of the molar value. No end group written: not given here.

ILLYGAANTGKSLFG [Peptide 89.0018] : < 4.70
GQVIVCPTSISSNQI [Peptide 89.0185] : < 4.70
WQLIRLENAILFTAR [Peptide 90.0211] : 5.64

Fill in: pIC50 of ESVFSSDEISFAGIV [Peptide 90.0195] is ___
6.17

Thanks! And IGYYDAQKLLEKMGG [Peptide 68.0103] ?
< 4.70

Repeat with TPEWIDRLTVLQHSF [Peptide 89.0069]
< 4.70

Quick one: EDFFKLERDMKINCS [Peptide 68.0167]
< 4.70
